Each entry below carries its reported Baseline Signal (Normalized by expression).
system: SmLux; test: Computationally generated LgLux variants expressed in E. coli, tested in lysates with SmLux and substrate 1c; type: biochemical; details: Table 22, 50 uM substrate 1c
Write the value as a bare number.

- molecule: "MBIO-5371: computationally generated LgLux, SEQ ID NO 2786 (protein) MTPEERIADVLAFYAALASGDLEAAKALFNPGVTITLWDGTTFTSVEEFRAWFEEQFKTSKDALREIESIEVDGDTVRVLVRLSFTRNGQKHTVDLLQQFKFI"
  numeric_result: 234.6

Query: Fill in: Baseline Signal (Normalized by expression) of MBIO-5370: computationally generated LgLux, SEQ ID NO 2785 (protein) MTPEEIRQNLRRFYEALDSGDAEAAKSLFDPGVTITLWDGTTFTSVEEFREWFEEQFKTSKDALREIESLEVDGDTVRVTVRLTFTRDGEEKVVDLLQLFKFV is ___
Reply: 4567

Query: Returns the measured Baseline Signal (Normalized by expression) for the input molecule. Input: MBIO-5374: computationally generated LgLux, SEQ ID NO 2789 (protein) MTPEERIANVRAFYAALASGDLEAAAALFDPGVTITLWDGTTFTSVEEFRAWFEEQFKTSKDALREIESIEVDGDTVRVLVRLTFVRDGEEKVVDLLQLFKFV
Reply: 796

Query: Quick one: Baseline Signal (Normalized by expression) for MBIO-5360: computationally generated LgLux, SEQ ID NO 2775 (protein) MTPEELIANVLAFYAALASGDLVAAKALFNPGVTITLWDGTTFTSVEEFRAWFETQFKTSKDALREIESIEVDGDTVRVLVRLTFVRDGEEQVVDLLQLFKFV ?
Reply: 150.2

Query: Sample MBIO-5362: computationally generated LgLux, SEQ ID NO 2777 (protein) MTPEERIANVLAFYAALASGDLEAAAALFNPGVTITLWDGTTFTSVEEFRAWFEEQFKTSKDALREIESIEVDGDTVRVLVRLSFTRNGQKHTVDLLQLFKFV — what was its Baseline Signal (Normalized by expression)?
Reply: 906.4

Query: Which Baseline Signal (Normalized by expression) reading was recorded for the molecule MBIO-5378: computationally generated LgLux, SEQ ID NO 2793 (protein) MTPEERIADVRAFYAALASGDLEAAKALFDPGVTITLWDGTTFTSVEEFRAWFEEQFKTSKDALREIESIEVDGDTVRVLVRLTFVRDGEEKVVDLLQQFKFI ?
Reply: 197

Query: Find the recorded Baseline Signal (Normalized by expression) belonging to MBIO-5366: computationally generated LgLux, SEQ ID NO 2781 (protein) MTPEELRQNLLRFYEALDSGDAVAAKSLFNPGVTITLWDGTTFTSVEEFREWFETQFKTSKDALREIESLEVDGDTVRVTVRLTFTRDGEEQVVDLLQLFKFV and report it.
Reply: 931.2
